Values from patent US20240391923A1

Tested on: SDMA in human colon cancer cell line HCT116
Test: Cell symmetric dimethylarginine (SDMA) test, In-cell Western, HCT116 (MTAP wild-type)
Type: cell-based
Conditions: Homo sapiens, HCT-116, 96 h, IC50 score class, read-out: Cell 96 h SDMA Inhibition (HCT116-MTAP+/+) (score)
valueKind: IC50

{"smilesStr": "Cn1cc2c(n1)c(=O)n(-c1cccnc1)c1cc(OC(F)(F)F)ccc21", "valueKind": "IC50", "result": "1 to 3 µM"}

INPUT: I'm curious: which IC50 was measured for Cn1cc2c(n1)c(=O)n(-c1cccc3[nH]ncc13)c1nc(C(F)(F)F)c(F)cc21 tested on SDMA in human colon cancer cell line HCT116?
OUTPUT: 0.2 to 1 µM

INPUT: I'm curious: which IC50 was measured for O=c1c2[nH]ncc2c2ccc(Cl)cc2n1-c1cccnc1 tested on SDMA in human colon cancer cell line HCT116?
OUTPUT: 1 to 3 µM

INPUT: I'm curious: which IC50 was measured for Cn1cc2c(n1)c(=O)n(-c1cccnc1)c1nc(C3CC3)ccc21 tested on SDMA in human colon cancer cell line HCT116?
OUTPUT: 1 to 3 µM

INPUT: I'm curious: which IC50 was measured for O=c1c2n[nH]cc2c2cc(F)c(Cl)cc2n1-c1cccc2[nH]ncc12 tested on SDMA in human colon cancer cell line HCT116?
OUTPUT: 0.2 to 1 µM

INPUT: I'm curious: which IC50 was measured for COc1ccc(Cn2cc3c(n2)c(=O)n(-c2cccnc2)c2cc(Cl)ccc32)cc1 tested on SDMA in human colon cancer cell line HCT116?
OUTPUT: 0.2 to 1 µM

INPUT: I'm curious: which IC50 was measured for CCn1cc2c(n1)c(=O)n(-c1cncc(F)c1)c1cc(Cl)ccc21 tested on SDMA in human colon cancer cell line HCT116?
OUTPUT: 1 to 3 µM

INPUT: I'm curious: which IC50 was measured for Cc1ncccc1-n1c(=O)c2n[nH]cc2c2ccc(C(F)(F)F)nc21 tested on SDMA in human colon cancer cell line HCT116?
OUTPUT: < 0.2 µM

INPUT: I'm curious: which IC50 was measured for Cn1cc2c(n1)c(=O)n(-c1cccc(O)c1)c1cc(Cl)ccc21 tested on SDMA in human colon cancer cell line HCT116?
OUTPUT: > 3 µM

INPUT: I'm curious: which IC50 was measured for Cn1cc2c(n1)c(=O)n(-c1ccccc1Cl)c1nc(C(F)(F)F)ccc21 tested on SDMA in human colon cancer cell line HCT116?
OUTPUT: > 3 µM

INPUT: I'm curious: which IC50 was measured for CCn1cc2c(n1)c(=O)n(-c1cccc(C#N)c1)c1cc(Cl)ccc21 tested on SDMA in human colon cancer cell line HCT116?
OUTPUT: 1 to 3 µM

INPUT: I'm curious: which IC50 was measured for Cn1cc2c(n1)c(=O)n(-c1cccc(F)c1)c1nc(C(F)(F)F)ccc21 tested on SDMA in human colon cancer cell line HCT116?
OUTPUT: 1 to 3 µM

INPUT: I'm curious: which IC50 was measured for Cn1cc2c(n1)c(=O)n(-c1cccc3[nH]ncc13)c1cc(Cl)c(C#N)cc21 tested on SDMA in human colon cancer cell line HCT116?
OUTPUT: > 3 µM

INPUT: I'm curious: which IC50 was measured for O=c1c2nn(CC(F)F)cc2c2ccc(Cl)cc2n1-c1cccnc1 tested on SDMA in human colon cancer cell line HCT116?
OUTPUT: > 3 µM

INPUT: I'm curious: which IC50 was measured for Cn1cc2c(n1)c(=O)n(-c1cccnc1C(F)(F)F)c1nc(C(F)(F)F)ccc21 tested on SDMA in human colon cancer cell line HCT116?
OUTPUT: > 3 µM

INPUT: I'm curious: which IC50 was measured for COc1cc(Cl)cc2c1c1cn(C)nc1c(=O)n2-c1cccnc1 tested on SDMA in human colon cancer cell line HCT116?
OUTPUT: 1 to 3 µM

INPUT: I'm curious: which IC50 was measured for O=c1c2n[nH]cc2c2ccc(C(F)(F)F)nc2n1-c1cccnc1 tested on SDMA in human colon cancer cell line HCT116?
OUTPUT: 1 to 3 µM

INPUT: I'm curious: which IC50 was measured for O=c1c2nn(CC3CC3)cc2c2ccc(C(F)(F)F)nc2n1-c1cccnc1 tested on SDMA in human colon cancer cell line HCT116?
OUTPUT: 0.2 to 1 µM

###

Experiment: Pharmacokinetic test in rats (IV and PO)
Assay type: in vivo
Settings: rat, plasma; SD rats, PO 5 mg/kg; read-out: T½ (converted)
valueKind: half-life (h)

{"molecule": "CCn1cc2c(n1)c(=O)n(-c1cccc(F)c1)c1cc(Cl)ccc21 [Compound B4]", "half-life, h": 2.1}
{"molecule": "O=c1c2n[nH]cc2c2cc(F)c(Cl)cc2n1-c1cccnc1C1CC1 [Compound B425]", "half-life, h": 11.6}
{"molecule": "Cn1cc2c(n1)c(=O)n(-c1cccc3[nH]ncc13)c1nc(C(F)(F)F)ccc21 [Compound B181]", "half-life, h": 9.5}
{"molecule": "COc1ccc(Cn2cc3c(n2)c(=O)n(-c2cccnc2)c2cc(Cl)ccc32)cc1 [Compound B28]", "half-life, h": 3.3}

[P] Cn1cc2c(n1)c(=O)n(-c1cccnc1C1CC1)c1cc(Cl)c(F)cc21 [Compound B340]
[Q] Cn1cc2c(n1)c(=O)n(-c1cccnc1)c1cc(Cl)ccc21 [Compound B12]
[R] CCn1cc2c(n1)c(=O)n(-c1cccnc1)c1cc(Cl)ccc21 [Compound B3]
INPUT: With regard to half-life, arrange the entries in ascending order, please. A complete answer lists every label in the requested sequence.
OUTPUT: R, Q, P
(R: 0.97 h, Q: 3.7 h, P: 14.7 h)

###

pIC50 by entry:
Test system: SDMA in HCT116-MTAP-knockout cell line
Experiment: Cell symmetric dimethylarginine (SDMA) test, In-cell Western, HCT116-MTAP-knockout
Type: cell-based
Conditions: Homo sapiens, 96 h, IC50 score class, read-out: Cell 96 h SDMA Inhibition (HCT116-MTAP−/−) (score)
pIC50: −log10 of the molar value.

Previously resolved entries follow.
{"compound": "CCn1cc2c(n1)c(=O)n(-c1c(C)ccnc1C)c1cc(Cl)ccc21", "pIC50": "> 6.70"}
{"compound": "NC(=O)CC1N=c2c(c3ccc(Cl)cc3n(-c3cccnc3)c2=O)=N1 (stereo not drawn)", "pIC50": "5.52 to 6.00"}
{"compound": "Cn1cc2c(n1)c(=O)n(-c1cncc(O)c1)c1nc(C(F)(F)F)ccc21", "pIC50": "5.52 to 6.00"}

INPUT: Return reported pIC50; argument: Cn1cc2c(n1)c(=O)n(-c1cccc3[nH]ncc13)c1cc(Cl)c(F)cc21
OUTPUT: > 6.70

INPUT: Return reported pIC50; argument: Cc1ncccc1-n1c(=O)c2nn(C)cc2c2ccc(OC(F)(F)F)cc21
OUTPUT: > 6.70

INPUT: Return reported pIC50; argument: CCn1nc2c(=O)n(-c3cccnc3)c3cc(Cl)ccc3c2c1C
OUTPUT: > 6.70

INPUT: Return reported pIC50; argument: CC(C)n1cc2c(n1)c(=O)n(-c1cccnc1)c1cc(Cl)ccc21
OUTPUT: 6.00 to 6.70

INPUT: Return reported pIC50; argument: O=c1c2nn(CC(F)F)cc2c2ccc(Cl)cc2n1-c1cccnc1
OUTPUT: 6.00 to 6.70

INPUT: Return reported pIC50; argument: Cn1cc2c(n1)c(=O)n(-c1cccc3[nH]ncc13)c1cc(Cl)cnc21
OUTPUT: 6.00 to 6.70

###

pIC50 by entry:
Molecular target: MAT2A recombinant protein (Homo sapiens)
Sequence (P31153 whole entry): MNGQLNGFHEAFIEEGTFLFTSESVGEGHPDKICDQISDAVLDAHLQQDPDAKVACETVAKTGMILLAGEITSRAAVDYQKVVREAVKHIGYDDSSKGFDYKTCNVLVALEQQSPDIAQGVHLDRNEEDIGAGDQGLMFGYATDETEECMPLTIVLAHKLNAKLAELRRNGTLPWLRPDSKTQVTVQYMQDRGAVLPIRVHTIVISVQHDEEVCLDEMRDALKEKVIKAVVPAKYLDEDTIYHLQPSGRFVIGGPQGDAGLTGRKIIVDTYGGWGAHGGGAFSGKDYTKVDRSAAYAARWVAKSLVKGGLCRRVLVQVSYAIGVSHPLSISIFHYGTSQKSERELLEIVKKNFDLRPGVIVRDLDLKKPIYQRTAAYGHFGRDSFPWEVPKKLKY
Experiment: MAT2A inhibitory activity (malachite green colorimetric enzyme assay)
Format: biochemical
Conditions: IC50 score class; read-out: MAT2A Inhibition (score)
pIC50: −log10 of the molar value.

{"smilesStr": "O=c1c2n[nH]cc2c2ccc(C(F)(F)F)nc2n1-c1cccnc1", "result": "> 7.00"}
{"smilesStr": "CCn1cc2c(n1)c(=O)n(-c1cccc(F)c1)c1cc(Cl)ccc21", "result": "> 7.00"}
{"smilesStr": "Cn1cnc2c(=O)n(-c3cccnc3C(F)(F)F)c3cc(Cl)c(F)cc3c21", "result": "> 7.00"}
{"smilesStr": "Cc1ncccc1-n1c(=O)c2[nH]ncc2c2ccc(OC(F)(F)F)cc21", "result": "> 7.00"}
{"smilesStr": "CCn1cc2c(n1)c(=O)n(-c1ccccc1)c1cc(Cl)ccc21", "result": "6.00 to 7.00"}

INPUT: Return reported pIC50; argument: Cn1cc2c(n1)c(=O)n(Cc1cn[nH]c1)c1cc(Cl)ccc21
OUTPUT: 6.00 to 7.00

INPUT: Return reported pIC50; argument: CCn1nc2c(=O)n(-c3cccnc3)c3cc(Cl)ccc3c2c1F
OUTPUT: > 7.00

INPUT: Return reported pIC50; argument: CN1CCN(c2nccc(Cn3cc4c(n3)c(=O)n(-c3cccc5[nH]ncc35)c3cc(Cl)c(F)cc43)n2)CC1
OUTPUT: > 7.00

INPUT: Return reported pIC50; argument: O=c1c2nn(C(F)F)cc2c2ccc(C(F)(F)F)nc2n1-c1cccnc1
OUTPUT: > 7.00

INPUT: Return reported pIC50; argument: COc1cccc(-n2c(=O)c3nn(C)cc3c3ccc(C(F)(F)F)nc32)c1
OUTPUT: 6.00 to 7.00

INPUT: Return reported pIC50; argument: O=c1c2nccnc2c2ccc(Cl)cc2n1-c1cccnc1
OUTPUT: 6.00 to 7.00

INPUT: Return reported pIC50; argument: Cn1cc2c(n1)c(=O)n(-c1cccc(C(F)F)c1)c1nc(C(F)(F)F)ccc21
OUTPUT: > 7.00

INPUT: Return reported pIC50; argument: COCCn1cc2c(n1)c(=O)n(-c1cccnc1)c1cc(Cl)ccc21
OUTPUT: > 7.00

INPUT: Return reported pIC50; argument: O=c1c2nn(C(F)F)cc2c2cc(F)c(Cl)cc2n1-c1cccc2[nH]ncc12
OUTPUT: > 7.00

INPUT: Return reported pIC50; argument: CCn1cc2c(n1)c(=O)n(-c1ccncc1)c1cc(Cl)ccc21
OUTPUT: < 6.00

INPUT: Return reported pIC50; argument: Cn1cc2c(n1)c(=O)n(-c1cncc(F)c1)c1nc(C(F)(F)F)ccc21
OUTPUT: > 7.00

INPUT: Return reported pIC50; argument: CCn1cc2c(n1)c(=O)n(-c1cccc(C(F)(F)F)c1)c1cc(Cl)ccc21
OUTPUT: < 6.00

INPUT: Return reported pIC50; argument: Cn1nc2c(=O)n(-c3cccnc3)c3cc(Cl)ccc3c2c1C(F)(F)F
OUTPUT: 6.00 to 7.00
